Where these numbers come from: patent US20100041597A1

- target system: T1, PKC-βI (purified isoform) (Homo sapiens (Human), UniProt P05771 2-671)
- T1 construct: also called PKC-beta I
- T1 sequence (P05771 2-671 limits assumed): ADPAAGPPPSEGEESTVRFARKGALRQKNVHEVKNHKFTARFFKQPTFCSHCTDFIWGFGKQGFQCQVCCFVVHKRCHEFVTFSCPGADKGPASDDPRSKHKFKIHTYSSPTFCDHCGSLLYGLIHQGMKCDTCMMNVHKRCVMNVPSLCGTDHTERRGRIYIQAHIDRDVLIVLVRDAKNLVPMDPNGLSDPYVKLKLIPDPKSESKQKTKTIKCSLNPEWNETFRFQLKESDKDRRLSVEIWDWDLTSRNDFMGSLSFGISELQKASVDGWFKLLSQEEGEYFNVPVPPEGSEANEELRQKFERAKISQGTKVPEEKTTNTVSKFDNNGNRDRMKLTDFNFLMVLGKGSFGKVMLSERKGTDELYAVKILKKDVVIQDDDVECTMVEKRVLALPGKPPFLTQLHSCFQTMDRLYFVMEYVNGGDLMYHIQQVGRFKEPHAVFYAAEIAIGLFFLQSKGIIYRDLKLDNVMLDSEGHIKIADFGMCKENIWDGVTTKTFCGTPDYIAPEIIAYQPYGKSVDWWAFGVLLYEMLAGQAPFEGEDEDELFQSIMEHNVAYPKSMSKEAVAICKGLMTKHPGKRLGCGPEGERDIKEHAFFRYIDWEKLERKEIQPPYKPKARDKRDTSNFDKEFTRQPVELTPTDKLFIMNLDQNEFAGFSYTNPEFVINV
- method: competitive ELISA on purified PKC-βI vs anti-PKC-βI Ab; PRE 200 µM
- Method: Greiner 96 well ELISA plates were coated with the appropriate PKC isoform diluted in PBSN (PBS with Calcium/Magnesium+0.05% Sodium azide w/w). 50 μL/well at 250 ng/mL was used. Control wells contained PBSN only. Plates were incubated overnight at 4° C. The plates were washed 3 times with 200 μL of dH₂O per well, then 100 μL of blocking solution was added per well and the plate incubated for 1 h at 37° C. […]
observed property: binding capacity (%)

binding capacity (%) reported for this binder Ac-ISIGILQNADK-NH2 (Synthetic peptide (retro form of PRE 4); also called peptide PRE 7) [PRE 7] : 0

P: Ac-RDAQNLI-NH2 (Synthetic peptide; also called peptide PRE 13; Ac-RDAQNLI-NH2) [PRE 13]
Q: Ac-KDAQNLIGISI-NH2 (Synthetic peptide; also called peptide PRE 4) [PRE 4]
Input: Thinking about recorded binding capacity (%) values, which is higher, P or Q ? Pick one and reply with its label.
Output: Q
